Just for reference, patent US20260374766A1 is where these values come from.

Can you tell me Emax for the items I'm about to list?
target: p53 Y220C (Homo sapiens, UniProt P04637, Y220C); experiment: Luciferase Reporter Assay (Luc), p53 response element, NClH1299 cells with inducible p53 Y220C; format: cell-based; settings: luciferase reporter, NClH1299 inducible p53 Y220C, 6 hour; 10 uM tool compound as positive control

As a guide, the following entries are already answered.
C=CC(=O)Nc1cc(NC2CCN(C)CC2)c2nc(C#CCNc3ccc(C(=O)NC)cc3OC)c(CC(F)(F)F)n2c1 ... < 70%
CNC(=O)c1ccc(OC)c(NCC#Cc2nc3c(N[C@H]4C[C@@H]5CC[C@H]([C@H]4F)N5C)cccn3c2SC(F)(F)F)c1 ... 70 to 80%
CNC(=O)c1ccc(NCC#Cc2nc3c(N[C@@H]4CCN(C)C[C@@H]4F)cccn3c2SC(F)(F)F)cc1 ... > 90%

# map each compound to its Emax
1. CNC(=O)c1ccc(OC)c(NCC#Cc2cc3c(N[C@@H]4CCN(C)C[C@@H]4F)cccn3c2SC(F)(F)F)c1
2. CNC(=O)c1ccc(NCC#Cc2nc3c(N[C@@H]4CCN(C)C[C@@H]4F)cccn3c2SC(F)(F)F)c(OC(F)F)c1
3. CN1CC[C@@H](Nc2cccn3c(CC(F)(F)F)c(C#CCCN)nc23)[C@@H](F)C1
4. CNC(=O)c1ccc(NCC#Cc2nn3c(N[C@@H]4CCN(C)C[C@@H]4F)nccc3c2SC(F)(F)F)c(OC)c1
5. CNC(=O)c1ccc(NCC#Cc2cc3c(N[C@@H]4CCN(C)C[C@@H]4F)nccn3c2SC(F)F)c(OC)c1
6. CNC(=O)c1ccc(NCC#Cc2nc3c(N[C@H]4C[C@@H]5CC[C@H]([C@H]4F)N5C)cccn3c2SC(F)(F)F)c(OC)c1

["> 90%", "80 to 90%", "< 70%", "> 90%", "> 90%", "70 to 80%"]
